Below: a set of entries, each annotated with reported TGI.
- System: T-47D breast
- test-method-notes: NCI tumour cell line growth inhibition, 48 h
The reply should be a number in µM, with the unit left off.

mol-smiles	TGI, µM
Oc1c(I)cc(I)cc1CN(Cc1ccccn1)Cc1ccccn1	10.6

Read the next record carefully.
**Q:** Give me measured TGI, please, for this compound: "Oc1c(CN2CCN(c3ccccc3F)CC2)cc(Br)c2cccnc12"
**A:** 60.5

====

TGI overview
- System: M14 melanoma
- test-method-notes: NCI tumour cell line growth inhibition, 48 h
Numeric answer only, unit µM assumed.

// worked examples, TGI included
molecule	tgt	TGI, µM
Cc1cc(O)c2c(c1)CC(O)C1=C2C(=O)c2c(O)ccc(OC3CC(O)C(OC4CC(OC5CCC(O)C(C)O5)C(O)C(C)O4)C(C)O3)c2C1=O (configuration not stated)	M14 melanoma	3.04
Clc1ccc2c(NCCNc3nc(N4CCCC4)nc4ccccc34)ccnc2c1	M14 melanoma	2.76

Now look at this entry.
**Q:** Quote TGI reported for "COc1cc(/C=C2\C[C@H]3[C@@H]4CC=C5C[C@@H](OC(C)=O)CC[C@]5(C)[C@H]4CC[C@]3(C)[C@H]2OC(C)=O)ccc1OCCN1CCCCC1" please.
**A:** 10

====

- Tested on: CCRF-CEM leukemia
- test-method-notes: NCI tumour cell line growth inhibition, 48 h; in the data active = GI50 below about 0.43 µM; inactive = the rest
Write down one outcome, taken from 1.0 for active, 0.0 for inactive

Worked set:
molecule	label-value
C/C(=C\c1ccn(-c2ccc(N)cc2F)n1)[C@@H]1C[C@@H]2O[C@]2(C)CCC[C@H](C)[C@H](O)[C@@H](C)C(=O)C(C)(C)[C@@H](O)CC(=O)O1	1.0
COc1ccc(C2CC(=O)c3c(O)c(OC)c(OC)c(OC)c3O2)cc1O (stereo not drawn)	1.0
O=C(NCCCCCCNC(=O)OCc1ccc2c(Cl)cc(Cl)c(O)c2n1)OCc1ccc2c(Cl)cc(Cl)c(O)c2n1	1.0

Let us examine a further case.
**Q:** // outcome(item) with item = "C=C1C(=O)O[C@H]2[C@H]1CC/C(COC(=O)NCc1cc(OC)cc(OC)c1)=C\CC[C@@]1(C)O[C@@H]21"
**A:** 0.0

====

- System: SF-295 CNS
- test-method-notes: NCI tumour cell line growth inhibition, 48 h
Recorded TGI, one value per entry.
All answers are understood in µM, so give the number only.

COC1=C(OC)[C@]2(OC)c3c(O)c(OC)c4c(c3O[C@@]23O[C@@H](c2ccccc2)CC=C3C1=O)[C@@H](O)C[C@H](c1ccccc1)O4 3.57

**Q:** Enter measured TGI, system SF-295 CNS, for the compound shown: "CCN1CCN(c2ccc(Nc3ncc4ccc5ncn(C(C)C)c5c4n3)nc2)CC1"
**A:** 0.794

====

- Test system: NCI-H460 lung
- test-method-notes: NCI tumour cell line growth inhibition, 48 h
Where a SMILES comes first, the peptide text is derived from it. [ ]: non-standard residue; d: D form. The star is where a group is joined. Bn2Val = CC(C)[C@@H](C(=O)*)N(Cc1ccccc1)Cc1ccccc1; NH(3,4-diMeO-benzyl) = COc1ccc(CN*)cc1OC; NMeV = CN[C@H](C(=O)O)C(C)C
measured-quantity: TGI

Here are 3 molecules together with their reported answers.
molecule	TGI
Fc1ccc2c3c([nH]c2c1)CCNC3	> 100 µM
C#Cc1cc(CN(CC(=O)OC(C)(C)C)CC(=O)OC(C)(C)C)nc(CN(CC(=O)OC(C)(C)C)CC(=O)OC(C)(C)C)c1	> 100 µM
COc1cc2c3c(n(CCCN4CCCC(O)C4)c(=O)c2cc1OC)-c1cc2c(cc1C3=O)OCO2 (centres undefined)	6.13 µM

Shifting focus to the molecule that follows.
**Q:** Identify measured TGI corresponding to COc1ccc(CNC(=O)[C@@H]2CCCN2C(=O)[C@@H]2CCCN2C(=O)[C@H](C(C)C)N(C)C(=O)[C@@H](NC(=O)[C@H](C(C)C)N(Cc2ccccc2)Cc2ccccc2)C(C)C)cc1OC (Bn2Val-V[NMeV]PP-{NH(3,4-diMeO-benzyl)})
**A:** > 60.5 µM

====

- Test system: SF-295 CNS
- test-method-notes: NCI tumour cell line growth inhibition, 48 h
measured-quantity: TGI

molecule	TGI
O=C(/C=C/c1ccc2c(c1)OCO2)CC(=O)/C=C/c1ccc2c(c1)OCO2	> 100 µM
O=c1c2cc(S(=O)(=O)Nc3c(Cl)cccc3Cl)ccc2ncn1NS(=O)(=O)c1ccc2ccccc2c1	> 62.5 µM
CCCCCCCCCCCCC(CCCCCCCCCCCC)OP(=O)(O)O	> 100 µM

**Q:** For the molecule COc1ccc(C2c3c(-c4ccccc4)nn(-c4ccccc4)c3Oc3ncn4nc(CC#N)nc4c32)cc1OC (centres undefined) , give its measured TGI value.
**A:** > 100 µM

**Q:** Using known records, supply TGI for COC(=O)C(=O)C(C(=O)OC)C(=O)C(=O)Nc1cc(Cl)c(Cl)cc1Cl (centres undefined)
**A:** > 100 µM

====

- Test system: HCT-15 colon
- test-method-notes: NCI tumour cell line growth inhibition, 48 h
measured-quantity: TGI

Some compounds with recorded TGI:
compound	measured-quantity	experimental-value
CN1N=C2c3ccccc3CC[C@H]2C1c1cccc(O)c1 (stereo not given in full)	TGI	> 100 µM
O=C(COc1ccc(Cl)cc1Cl)N/N=C/C=C/c1ccc([N+](=O)[O-])o1	TGI	> 100 µM
COc1ccc(C2=NN(C(=O)c3cccnc3)C(O)(c3cc(F)c(Cl)cc3Cl)C2)cc1OC (stereo not given)	TGI	35 µM

**Q:** In one line, give reported TGI of the entry COC(=O)c1ccccc1C1CN=NC12Cc1cc(C)cc(C)c1C2=O (stereo not given) .
**A:** 76.6 µM

**Q:** Item "CC(C)NC(=O)OCc1c(COC(=O)NC(C)C)c(-c2ccc[n+](COC(=O)C(C)(C)C)c2)n2c1CCC2" : provide TGI
**A:** > 100 µM

====

- System: RXF 393 renal
- test-method-notes: NCI tumour cell line growth inhibition, 48 h
measured-quantity: log10 TGI (log10 of the value in µM)
Plainly stated, the numbers are log10 of TGI given in µM.

Worked set:
compound	tgt	log10 TGI
CC(C)N1[C@@H]2CCCC[C@H]2N(C(C)C)P1(=O)C(=O)/C=C/c1ccccc1	RXF 393 renal	0.54
COc1cccc(C2c3cc4c(cc3OC(N3CCCCC3)C2C)OCO4)c1OC (configuration not stated)	RXF 393 renal	1.45
CCCCCCNCCCNc1c2ccccc2nc2cccc([N+](=O)[O-])c12	RXF 393 renal	-1.51
COc1cc(Nc2nc3cc(C(F)(F)F)ccc3nc2C)cc(OC)c1OC	RXF 393 renal	1.25
Cc1cc2nc(C(Cl)Cl)nc(-c3ccccc3)n2n1	RXF 393 renal	0.76

**Q:** For the compound "CN(C)Cc1cc(/C=C/C(=O)c2ccc(Cl)c(Cl)c2)cc(CN(C)C)c1O" , give its measured log10 TGI value.
**A:** 1.45

**Q:** Provide only the value of recorded log10 TGI for "CC1=C[C@@H]2[C@@H](CC(CO)=C[C@H]3[C@@H]4C(C)(C)[C@]4(OCC(C)C)[C@H](OCC(C)C)[C@@H](C)[C@]23O)C1=O"
**A:** 0.57

**Q:** Query log10 TGI for Cc1nc2sc(C(=O)Nc3cccc(Br)c3)c(N)c2cc1C(O)c1ccccc1 (configuration not stated)
**A:** 1.04

**Q:** Please supply the value of reported log10 TGI for the item "O=S(=O)(Nc1ccccn1)c1ccc(N=Nc2ccc(O)c3ncccc23)cc1"
**A:** 1.08

**Q:** Identify the reported log10 TGI for the following entry. "COC(=O)/C=C1/OC(c2ccc(C)cc2)=C(Cl)C1=O"
**A:** 1.42

**Q:** Output log10 TGI of "CCc1ccccc1NC(=O)C(=O)CC(=O)c1sc(Nc2ccccc2Cl)nc1C"
**A:** 1.87

**Q:** Return the recorded log10 TGI value; entry: "N#CCc1nc(-c2cc3c(ccc4ccccc43)oc2=O)cs1"
**A:** 1.87

**Q:** Return value of log10 TGI for input "C=C(C)[C@@H]1CC[C@]2(C(N)=O)CC[C@]3(C)[C@H](CC[C@@H]4[C@@]5(C)C/C(=C/c6cccnc6)[C@H](O)C(C)(C)[C@@H]5CC[C@]43C)[C@@H]12" , no commentary.
**A:** 1.72

**Q:** Supply recorded log10 TGI for "CC(C)(C)C(=O)/C=C/c1cccc(Oc2ccccc2)c1" here.
**A:** 1.48

**Q:** Identify measured log10 TGI associated with "Cc1ccc(SSCCCCCS(=O)O)cc1"
**A:** 1.64

====

Here the recorded log10 TGI is given for each entry.
- Tested on: LXFL 529 NSCLC
- test-method-notes: NCI tumour cell line growth inhibition, 48 h
Please note: log10 values; quantity TGI; unit µM.

Check out these entries, answers already filled in.
compound	experimental-value
Cn1sc2ccccc2c1=S	1.43
CC[CH2][Sn]([CH2]CC)([O]C(=O)Cc1ccc(F)cc1)[O][Sn]([CH2]CC)([CH2]CC)[O]C(=O)Cc1ccc(F)cc1	-1.00
O=C(NNC(=O)c1nsc2ccccc12)c1ccc(Cl)cc1	1.60
COC1=CC(=O)C2C(C1=O)C(c1ccc(OC)c(OC)c1)[C@H]2C (stereo partly specified)	1.52
COc1ccc2c(c1)OC(c1ccccc1O)CC2=O (stereo unspecified)	1.85
N#C[S-].[Ce+3].c1cnc2c(c1)ccc1cccnc12.c1cnc2c(c1)ccc1cccnc12.c1cnc2c(c1)ccc1cccnc12	1.39

**Q:** Write down measured log10 TGI (LXFL 529 NSCLC) for this compound. "Cc1ccc(SSCCCCCS(=O)O)cc1"
**A:** 1.45

**Q:** Please look at "CCCCCCCCCCCCCCCCCC[N+](C)(C)Cc1ccc(C[N+](C)(C)CCCCCCCCCCCCCCCCCC)cc1" and tell me its recorded log10 TGI on LXFL 529 NSCLC.
**A:** 1.11
